# Tested on: SN12C renal
# assay: NCI tumour cell line growth inhibition, 48 h
Where a SMILES comes first, the peptide text is derived from it. The star is where a group is joined. Boc = CC(C)(C)OC(=O)*
Here, each record is paired with measured TGI data.

# compound, TGI
records = [
    ("CC(C)/C(Cl)=N\\OC(=O)Nc1cccc(F)c1", "32.2 µM"),
    ("COc1cc(O)c2c(O)c3c(c4c2c1[C@]1(C4)C(C)=CCCC1(C)C)[C@H](O)[C@@]1(O)CC(=O)C(C(N)=O)=C(O)[C@@]1(O)C3=O", "1.25 µM"),
    ("CC(NC(=O)C(NC(=O)OC(C)(C)C)C(C)C)C(=O)N1CCCC1C(=O)NCC(=O)NC(C(=O)NCC(=O)O)C(C)C (stereo not given) (Boc-VAPGVG-OH; configuration not given here)", "> 100 µM"),
    ("Cc1cc(NS(=O)(=O)c2ccc(N=Nc3cc(N=Nc4ccc(S(=O)(=O)Nc5cc(C)nc(C)n5)cc4)c4c(NC(=O)C(Cl)Cl)cccc4c3OC(=O)C(Cl)Cl)cc2)nc(C)n1 (tested in a mixture with another compound)", "37.8 µM"),
    ("Cn1c2ccccc2c(=S)c2ccccc21", "> 100 µM"),
    ("CC1CC2(C)ON=C(c3ccccc3)N2c2ccccc2S1 (stereo not given)", "34.2 µM"),
    ("COc1cc(C2c3cc4c(cc3OC(NC3CCCCC3)C2C)OCO4)cc(OC)c1OC (stereo not given)", "> 41.9 µM"),
    ("COc1ccccc1OCC(=O)Nc1sc2c(c1C(N)=O)CCC2", "> 100 µM"),
    ("O=S(=O)(O)O.[NH-]C1CCCCC1[NH-].[Pt+2] (stereo not given)", "> 100 µM"),
    ("CC(C)=CC1C(COC(=O)c2cc3c(cc2Cl)OCO3)C1(C)C (stereo not given)", "> 100 µM"),
    ("C/C=C/c1c(O)c(=O)c2c(OC)cc(OC)c3c4c(OC)cc(OC)c5c(=O)c(O)c(/C=C/C)c(c1c23)c54", "41.8 µM"),
    ("CCOC(=O)c1c(N)nn2c1cc1cccccc12", "> 100 µM"),
    ("COC(=O)CCC(=O)CC(=O)C1=NS(=O)(=O)c2nc(S(N)(=O)=O)c(Cl)cc2N1", "> 100 µM"),
    ("COc1cc(C2=NN(C)C(c3ccc([N+](=O)[O-])o3)C2)cc(OC)c1OC (stereo not given)", "> 100 µM"),
    ("Oc1ccc(-c2nnc3sc(-c4ccc(F)c(Oc5ccccc5)c4)nn23)cc1", "> 100 µM"),
    ("C=CCCCC1CCCNC1=O (stereo not given)", "> 100 µM"),
    ("CCOP(C)(=O)C(Cc1c[nH]c2ccccc12)C(=O)O (stereo not given)", "> 100 µM"),
    ("CC(=O)N1N=C2/C(=C/c3ccccc3)CC(C)CC2C1c1ccccc1 (stereo not given)", "30.4 µM"),
    ("O=C(O)C(CP(=O)(O)O)=C(Cl)Cl", "> 100 µM"),
    ("CC1=C[C@H]2c3c(c(O)c(O)c4oc5c(C)cccc5c(=O)c34)[C@H](c3cc(O)c(O)c4oc5c(C)cccc5c(=O)c34)[C@H]2C(C)(C)C1", "6.7 µM"),
    ("CC1Cc2c(Br)nc(N)nc2NC1=O (stereo not given)", "> 100 µM"),
    ("CCOC(C)C(/C=N/NC(N)=S)=NNC(N)=S (stereo not given)", "> 100 µM"),
    ("CN1C(=O)c2ccccc2NC(=O)c2cnn(C)c21", "> 100 µM"),
    ("C[C@H]1O[C@@H](c2c(O)ccc3ccccc23)C[C@@H](N(C)C)C1O (stereo not given in full)", "> 100 µM"),
    ("COc1ccccc1C1SCC(=O)N1c1ccc(-n2c(-c3ccccc3)nc3ccccc3c2=O)cc1 (stereo not given)", "> 100 µM"),
    ("COC(=O)Nc1nc2ccc(Oc3ccc(NC(=O)Nc4cccc(C(=O)O)c4)cc3)cc2[nH]1", "> 25 µM"),
    ("OC(c1nc2ccccc2s1)(C(F)(F)F)C(F)(F)F", "> 100 µM"),
    ("COc1cc(N(CCC#N)CCC#N)ccc1/C=C1\\SC(=S)NC1=O", "> 100 µM"),
    ("COc1c(C)c(C/C=C(\\C)CCCCO[Si](C(C)C)(C(C)C)C(C)C)c(OC)c2ccccc12", "> 100 µM"),
    ("C/C=C(C)/C=C/CC(C)CCC=C(C)C (stereo not given)", "> 100 µM"),
    ("Cc1ccccc1C1CC(=O)CC(c2ccccc2C)C12C(=O)NC(=O)NC2=O (stereo not given)", "> 100 µM"),
    ("CN(C)c1ccc(N2Cc3ccccc3OC3=C2C(=O)c2c(O)ccc(O)c2C3=O)cn1", "1.03 µM"),
    ("O=S1c2ccccc2N=C(c2ccc3ccccc3c2)CC1C1=CC=CCC1 (stereo not given)", "36.9 µM"),
    ("C1=Cc2ccccc2Nc2ccccc21", "> 100 µM"),
    ("COc1cccc(C2c3cc4c(cc3OC(C)(O)C2C)OCO4)c1O (stereo not given)", "62.3 µM"),
    ("CC(C)(C)NCc1cc(Nc2ccnc3cc(Cl)ccc23)cc(-c2ccc(Cl)cc2)c1O", "8.9 µM"),
    ("Cn1ccnc1C(=O)/C=C/c1ccc(C(=O)Nc2ccc(Cl)cc2)cc1", "5.07 µM"),
    ("COc1cc(O)cc(/C=C/c2ccc(O)cc2)c1", "77.8 µM"),
    ("COc1cc(-c2nc(Nc3nc4ccccc4[nH]3)nc(N)c2C#N)cc(OC)c1OC", "> 100 µM"),
    ("COC(=O)C1=C(O)c2cc(OC)c(OC)c(OC)c2[C@H](c2cc(OC)c(OC)c(OC)c2)C1C(=O)OC (stereo not given in full)", "> 100 µM"),
]
